# System name: rBoNT/A LC (Clostridium botulinum, UniProt P0DPI0)
# Sequence (P0DPI0 3-448, added parts left off): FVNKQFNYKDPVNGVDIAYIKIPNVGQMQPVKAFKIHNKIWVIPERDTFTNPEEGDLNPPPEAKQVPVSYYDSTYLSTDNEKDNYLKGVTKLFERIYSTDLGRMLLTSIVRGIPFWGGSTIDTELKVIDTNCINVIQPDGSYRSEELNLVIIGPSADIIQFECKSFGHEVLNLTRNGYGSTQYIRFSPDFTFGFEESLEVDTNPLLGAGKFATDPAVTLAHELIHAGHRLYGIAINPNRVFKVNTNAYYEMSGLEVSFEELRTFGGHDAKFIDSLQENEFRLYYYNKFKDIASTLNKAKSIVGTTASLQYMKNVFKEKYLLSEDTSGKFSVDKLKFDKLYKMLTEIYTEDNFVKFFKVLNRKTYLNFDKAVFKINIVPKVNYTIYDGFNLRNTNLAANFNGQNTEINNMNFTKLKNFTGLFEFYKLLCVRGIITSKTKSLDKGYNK
# Type: biochemical
Lab note: compare % Activity against 40%. Equal or greater, write 1. Smaller, write -1.

Example entries begin here.
# Molecule, Group
rows = [
    ("O=S(=O)([O-])[O-].[Ni+2] [NiSO4]", 1),
    ("[Ca+2].[Cl-].[Cl-] [CaCl2]", 1),
    ("O=S(=O)([O-])[O-].[Cu+2] [CuSO4]", 1),
    ("O=C(O)c1cc[c]([Hg][Cl])cc1 [p-C1-Mercuribenzoate]", -1),
    ("N[C@@H](CCC(=O)N[C@@H](CS)C(=O)NCC(=O)O)C(=O)O [Glutathione, reduced]", 1),
]

Data request: Reported % Activity reaches at least 40% for NC(=O)CI [Iodoacetamide] ?
Data returned: 1

Data request: Could you tell me if the measured % Activity of [Cl][Hg][Cl] [Mercuric chloride] reaches 40% or more?
Data returned: -1

Data request: Quick check: does O=C(O)CN(CCN(CC(=O)O)CC(=O)O)CC(=O)O [EDTA] have % Activity greater than or equal to 40%?
Data returned: -1

Data request: Form field: % Activity at least 40%? Entry: O[C@H](CS)[C@@H](O)CS [Dithioerythreitol]
Data returned: 1

Data request: Is the recorded value of % Activity equal to or greater than 40% for this molecule? N[C@@H](CS)C(=O)O [L-Cysteine]
Data returned: -1

Data request: Does the molecule O[C@H](CS)[C@H](O)CS [Dithiothreitol] have recorded % Activity that is 40% or more?
Data returned: 1

Data request: Could you please find out whether N[C@@H](CCC(=O)N[C@@H](CSN=O)C(=O)NCC(=O)O)C(=O)O [S-Nitrosoglutathione] has % Activity that meets 40% or exceeds it?
Data returned: 1

Data request: API: above_or_equal(metric=% Activity, cutoff=40%) for item [Cl][Fe][Cl] [FeCl2]
Data returned: -1

Data request: Answer whether % Activity of [Cl-].[Cl-].[Mg+2] [MgCl2] is greater than or equal to 40%.
Data returned: 1

Data request: In plain terms: is recorded % Activity at least 40% for OCCS [β-Mercaptoethanol] ?
Data returned: 1
